- Tested on: XIP peptide (Xip251-270) binding
- assay_overview: small-molecule binders of XIP peptide, primary screen, biochemical, small-molecule microarray, fluorescence 635/667 nm, 0.1 µg/mL protein (AID 1182)
- setup_conditions: fluorescent protein binding, 635 nm, higher = more signal, called active from +8 up or from −8 down
Calls of active or inactive are those of the source.
readout_name: composite z-score

Reported composite z-score ( CCCNC(=O)[C@@H]1c2ccccc2C(=O)N(c2ccc(C)cn2)[C@H]1c1ccc(CO)cc1 ) = -0.239 (inactive)

Entry COc1ccc(O[C@H]2C=C[C@@H](c3ccccc3)O[C@@H]2COC(=O)CCC(C)=NOC(C)CN2CCCCc3nc(C)c(C)cc32)cc1 (some centres not stated) , composite z-score reported as 0.422 (inactive)

// sample CC(C)c1ccc(NN2C(C(O)c3ccc4c(c3)OCO4)C=CC3C(=O)N(c4ccccc4)C(=O)C32)cc1 (configuration not stated) , its composite z-score was 0.803 (inactive)

Short answer for O=C1[C@H]2[C@H]3[C@H](O)[C@H](O)CC(=NOC[C@@H](O)COCc4ccco4)[C@H]3CC[C@H]2C(=O)N1Cc1ccc2c(c1)OCO2 : composite z-score was 0.525 (inactive)

CC(C)=CCCC(C)=CCON=C1C[C@@H](O)[C@@H](O)[C@@H]2[C@@H]3C(=O)N(C[C@@H]4CCCO4)C(=O)[C@@H]3CC[C@@H]12 has a reported composite z-score of 0.0561 (inactive)

Reported composite z-score ( CO[C@@H]1COC(=O)CC=C[C@@H](C)[C@@H]2C=C[C@@H](O)[C@@H](COC(=O)CC=C[C@H]1C)O2 ) = 0.794 (inactive)

The compound identified as O=C1[C@H]2[C@H]3[C@H](O)[C@H](O)CC(=NO[C@@H]4O[C@H](CO)[C@@H](O)[C@H](O)[C@H]4O)[C@@H]3CC[C@H]2C(=O)N1c1ccc(F)cc1F registered its composite z-score at 0.34 (inactive)

Where do these numbers come from? They come from PubChem BioAssay.
